// provenance: the supplement of paper PMC10567573

B1: FBF1 (parent)
chain: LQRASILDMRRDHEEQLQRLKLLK

Variants of: B1
Experiment: protein stability index of a GFP-peptide fusion (GPS, HEK-293T) (PSI 1-6); higher = more stable;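 also: lentivirally expressed fusions sorted by FACS into six bins by GFP to DsRed ratio, PSI derived from sequencing read proportions per bin multiplied by bin number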
Settings: c terminus: a fixed tail appended
// reported protein stability index per item
# print the numeric value only

Please fill in: protein stability index reported for LQRASILDMRRDHEEQLVRLKLLK = 3.11
